These entries and their values trace back to patent US20240270857A1.

Target: T1, IL-36R naturally expressed on OVCAR8 cells and on normal human epidermal keratinocytes (NHK cells) (human, UniProt Q9HB29 20-575)
T1 sequence (looked up): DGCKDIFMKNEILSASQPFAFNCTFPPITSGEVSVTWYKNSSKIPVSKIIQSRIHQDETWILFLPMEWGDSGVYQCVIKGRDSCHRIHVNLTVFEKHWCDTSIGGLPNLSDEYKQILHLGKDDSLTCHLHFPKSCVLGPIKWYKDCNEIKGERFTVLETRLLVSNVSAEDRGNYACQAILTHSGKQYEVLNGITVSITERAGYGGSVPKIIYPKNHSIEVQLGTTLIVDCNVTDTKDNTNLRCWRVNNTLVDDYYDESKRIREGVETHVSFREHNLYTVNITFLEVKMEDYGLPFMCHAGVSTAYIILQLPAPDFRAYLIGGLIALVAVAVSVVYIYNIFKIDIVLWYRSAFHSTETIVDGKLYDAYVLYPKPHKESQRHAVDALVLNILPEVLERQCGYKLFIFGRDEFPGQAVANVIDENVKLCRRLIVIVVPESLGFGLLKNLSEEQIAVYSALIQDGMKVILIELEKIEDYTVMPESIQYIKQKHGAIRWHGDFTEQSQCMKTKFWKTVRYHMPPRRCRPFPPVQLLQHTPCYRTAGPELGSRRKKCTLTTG
Experiment: cell-based or functional assay
endpoint label: Maximum inhibition rate %; hIL36αβγ; IL-8 production (%)
All answers are understood in %, so give the number only.

Supply Maximum inhibition rate %; hIL36αβγ; IL-8 production value. Item: hz84C4-2.4 (antibody, human IgG4 S228P, kappa, V domains shown, Humanized, human IgG4 / kappa) VH: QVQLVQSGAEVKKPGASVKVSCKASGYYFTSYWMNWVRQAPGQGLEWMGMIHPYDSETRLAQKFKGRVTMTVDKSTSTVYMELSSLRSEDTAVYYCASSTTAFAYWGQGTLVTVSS VL: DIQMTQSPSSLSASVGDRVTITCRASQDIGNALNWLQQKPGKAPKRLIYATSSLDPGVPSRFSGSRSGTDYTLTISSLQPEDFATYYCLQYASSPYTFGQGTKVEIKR
95.6

# return recorded Maximum inhibition rate %; hIL36αβγ; IL-8 production for entry hz84C4-2.1 (antibody, human IgG4 S228P, kappa, V domains shown, Humanized, human IgG4 / kappa) VH: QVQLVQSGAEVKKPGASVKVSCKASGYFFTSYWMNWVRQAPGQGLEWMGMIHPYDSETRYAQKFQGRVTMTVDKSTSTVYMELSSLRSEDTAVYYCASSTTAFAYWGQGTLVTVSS VL: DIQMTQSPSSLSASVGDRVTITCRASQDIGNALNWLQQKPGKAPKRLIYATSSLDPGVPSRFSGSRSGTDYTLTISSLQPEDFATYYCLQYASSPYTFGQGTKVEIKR
107

Let me know recorded Maximum inhibition rate %; hIL36αβγ; IL-8 production for hz84C4-1.2 (antibody, human IgG4 S228P, kappa, V domains shown, Humanized, human IgG4 / kappa) VH: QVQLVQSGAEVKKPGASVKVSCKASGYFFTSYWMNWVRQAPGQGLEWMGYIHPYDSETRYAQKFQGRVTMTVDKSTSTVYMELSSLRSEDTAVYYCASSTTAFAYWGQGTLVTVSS VL: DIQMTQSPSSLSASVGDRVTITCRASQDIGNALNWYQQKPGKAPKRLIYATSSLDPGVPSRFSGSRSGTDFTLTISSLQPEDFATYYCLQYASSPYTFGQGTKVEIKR , thanks.
82.8

Entry hz84C4-2.5 (antibody, human IgG4 S228P, kappa, V domains shown, Humanized, human IgG4 / kappa) VH: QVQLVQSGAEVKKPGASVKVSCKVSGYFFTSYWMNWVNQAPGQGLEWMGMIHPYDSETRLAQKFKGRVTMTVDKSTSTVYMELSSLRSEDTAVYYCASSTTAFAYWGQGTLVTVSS VL: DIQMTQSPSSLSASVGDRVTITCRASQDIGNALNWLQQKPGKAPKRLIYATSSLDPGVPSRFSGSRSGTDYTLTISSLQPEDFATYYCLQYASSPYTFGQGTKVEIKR needs its Maximum inhibition rate %; hIL36αβγ; IL-8 production filled in; supply it.
98.5

Give reported Maximum inhibition rate %; hIL36αβγ; IL-8 production value for hz84C4-2.2 (antibody, human IgG4 S228P, kappa, V domains shown, Humanized, human IgG4 / kappa) VH: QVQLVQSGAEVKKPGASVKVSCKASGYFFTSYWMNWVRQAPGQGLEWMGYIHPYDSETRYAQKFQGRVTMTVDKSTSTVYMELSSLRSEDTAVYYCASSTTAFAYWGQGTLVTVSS VL: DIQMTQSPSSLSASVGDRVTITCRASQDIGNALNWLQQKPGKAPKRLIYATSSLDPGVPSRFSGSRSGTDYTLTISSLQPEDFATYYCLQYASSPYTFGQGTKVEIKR
100

State its Maximum inhibition rate %; hIL36αβγ; IL-8 production for this binder: hz84C4-1.4 (antibody, human IgG4 S228P, kappa, V domains shown, Humanized, human IgG4 / kappa) VH: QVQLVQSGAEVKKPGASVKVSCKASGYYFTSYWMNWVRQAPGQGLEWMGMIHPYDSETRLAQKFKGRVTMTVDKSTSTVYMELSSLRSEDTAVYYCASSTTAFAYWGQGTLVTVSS VL: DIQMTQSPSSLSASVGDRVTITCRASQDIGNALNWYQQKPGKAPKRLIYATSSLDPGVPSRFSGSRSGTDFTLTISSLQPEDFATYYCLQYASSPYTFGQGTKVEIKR
92.5

Return Maximum inhibition rate %; hIL36αβγ; IL-8 production for the following binder: hz84C4-1.5 (antibody, human IgG4 S228P, kappa, V domains shown, Humanized, human IgG4 / kappa) VH: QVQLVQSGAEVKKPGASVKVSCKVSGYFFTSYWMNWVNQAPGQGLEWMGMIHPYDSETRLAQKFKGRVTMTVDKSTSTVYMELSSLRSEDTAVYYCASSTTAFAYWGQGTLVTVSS VL: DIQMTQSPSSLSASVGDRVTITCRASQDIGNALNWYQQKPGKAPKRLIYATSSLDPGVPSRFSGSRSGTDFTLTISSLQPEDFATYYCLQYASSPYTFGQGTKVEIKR
97
